Values compiled from PubChem BioAssay (NCI).

Tested on: U251 CNS
protocol text: NCI-60 one-dose screen, 48 h (100 = growth as untreated, 0 = no growth, -100 = all killed)
condition parameters: 10 µM unless noted
About 83,000 compounds went through this panel and 20% of them were active in at least one assay; those are over-represented in the sample as a whole.
Please note: yes applies when growth is 80% or greater, and no applies otherwise.

| molecule | assigned category |
| --- | --- |
| COc1ccc2c(c1)C(=O)/C(=C/c1cccc(OCC(=O)c3ccccc3)c1)O2 | no |
| CCc1cccc(C)c1NC(=O)c1sc2nc3c(cc2c1N)CCCCC3 | no |
| C/C(=N/NC(=O)Cn1c2ccccc2c2ccncc21)c1cccs1 | yes |
| O=C(Nc1ccc(F)cc1)Nc1ccc(Br)c(C(F)(F)F)c1 | no |
| COc1ccccc1NC(=O)COc1ccc(/C=C2/Oc3cc4occc4c(OC)c3C2=O)cc1OC | yes |
| CCCCNc1cc(C(=O)O)cc(S(N)(=O)=O)c1Oc1ccccc1 | yes |
| CN(CCNCc1ccccn1)CCNCc1ccccn1 | no |
| COc1cc(-c2nc3sc(C)cn3c2/C=C2\C(=O)Nc3ccccc32)c(Br)c(OC)c1OC | no |
| Cc1cn(-c2cc(C(=O)Nc3cccc(-n4ccc5c(NC(=O)c6ccccc6)nccc54)c3)cc(C(F)(F)F)c2)cn1 | no |
| NC(=O)C1=C[C@H]2[C@H]3C=C[C@@]2(O)C(=O)O[C@@H]3O1 | no |
| CC(=O)c1cc2c(N)c(C(=O)Nc3cccc(Cl)c3)sc2nc1C | yes |
| Cc1[nH]n(C(=O)c2ccncc2)c(=O)c1N=Nc1ccc(S(=O)(=O)Nc2ccncn2)cc1 | yes |
| COc1cc(Nc2ncccc2C(=O)Nc2nc3ccc(F)cc3s2)cc(OC)c1OC | no |
| O=C(Cn1c2ccccc2c2ccncc21)N/N=C/c1c[nH]c2ccccc12 | no |
| C=C1C(=O)O[C@H]2[C@H]1CC/C(COC(=O)c1ccc(C#N)cc1)=C\CC[C@@]1(C)O[C@@H]21 | no |
| COc1cc2c(cc1OC)-c1c(oc3c4c(ccc3c1=O)OC(C)(C)C=C4)CO2 | yes |
| COc1ccc2c(c1)OC(N)=C(C#N)C2c1ccc(F)c(F)c1 (centres undefined) | no |
| C=CC(=O)Nc1cccc(Nc2nc(Nc3ccc(OCCOC(F)F)cc3)ncc2F)c1 | no |
| COC(=O)c1ccc(NC(N)=NCC(C)(C)COc2ccc(C(F)(F)F)cc2)nc1 | no |
| COc1ccc(/C=C2\CS(=O)(=O)C/C(=C\c3ccc(OC)cc3)C2=O)cc1 | no |
| Cc1ccccc1C[P+](c1ccccc1)(c1ccccc1)c1ccccc1 | no |
| CN(C)C(=O)Nc1nc2cc(Cl)c(Cl)cc2[nH]1 | no |
| COc1ccc(-c2nnc(SCC(=O)Nc3ccc(C(=O)/C=C/c4ccc(OC)c(OC)c4)cc3)o2)cc1 | no |
| Cc1ccc(=O)n(-c2ccc(Br)cc2F)c1 | yes |
| CC(C)CCC[C@@H](C)[C@H]1CC[C@H]2[C@@H]3CC=C4N(c5ccccc5)C(=O)CC[C@]4(C)[C@H]3CC[C@]12C | yes |
| CN1C(=O)C2(SCC(C(=O)NCC(=O)OC(C)(C)C)N2C(=O)C2CCCCC2)c2ccccc21 (centres undefined) | yes |
| O=C(C[n+]1cccc(Br)c1)c1ccc2c(c1)CCCC2 | yes |
| COc1cc(NC(C)CCCN2C(=O)c3ccccc3C2=O)c2ncccc2c1OC (centres undefined) | yes |
| CSc1ccc(C(=O)C[n+]2cccc(C)c2)cc1 | yes |
| Cc1nc(N)nc(SCc2ccccc2)c1Br | yes |
| CN1CCN(Cn2nc(-c3cc(Cl)cc(Cl)c3Cl)n(/N=C/c3ccc(Cl)cc3)c2=S)CC1 | yes |
| O=C(O)c1ccc2nc(-c3ccc(OCCCCCOc4ccc(-c5nc6ccc(C(=O)O)cc6[nH]5)cc4)cc3)[nH]c2c1 | yes |
| COc1cc(NC(C)CCCN2C(=O)c3ccccc3C2=O)c2nc(C)ccc2c1OC (centres undefined) | yes |
| Nc1ncnc2c1ncn2C1OC(COC(c2ccccc2)(c2ccccc2)c2ccccc2)C(O)C1O (centres undefined) | yes |
| C=C1C(=O)O[C@H]2[C@H]1CC/C(COC(=O)c1ccc3ccccc3c1)=C\CC[C@@]1(C)O[C@@H]21 | no |
| CC(=O)c1cc2c(c(O)c1C)C(=O)C(=O)c1c(O)cccc1-2 | no |
| Oc1ccccc1/C=N/c1ccccn1 | yes |
